Recorded measurements of hERG current change (%, negative = inhibition) at 10uM, one per entry
biological target: human ether-à-go-go-related gene (hERG) potassium channel (human, UniProt Q12809); assay: primary screen, population patch clamp on CHO cells stably expressing hERG; higher = less effect of the substance
Sequence (Q12809 whole entry, looked up): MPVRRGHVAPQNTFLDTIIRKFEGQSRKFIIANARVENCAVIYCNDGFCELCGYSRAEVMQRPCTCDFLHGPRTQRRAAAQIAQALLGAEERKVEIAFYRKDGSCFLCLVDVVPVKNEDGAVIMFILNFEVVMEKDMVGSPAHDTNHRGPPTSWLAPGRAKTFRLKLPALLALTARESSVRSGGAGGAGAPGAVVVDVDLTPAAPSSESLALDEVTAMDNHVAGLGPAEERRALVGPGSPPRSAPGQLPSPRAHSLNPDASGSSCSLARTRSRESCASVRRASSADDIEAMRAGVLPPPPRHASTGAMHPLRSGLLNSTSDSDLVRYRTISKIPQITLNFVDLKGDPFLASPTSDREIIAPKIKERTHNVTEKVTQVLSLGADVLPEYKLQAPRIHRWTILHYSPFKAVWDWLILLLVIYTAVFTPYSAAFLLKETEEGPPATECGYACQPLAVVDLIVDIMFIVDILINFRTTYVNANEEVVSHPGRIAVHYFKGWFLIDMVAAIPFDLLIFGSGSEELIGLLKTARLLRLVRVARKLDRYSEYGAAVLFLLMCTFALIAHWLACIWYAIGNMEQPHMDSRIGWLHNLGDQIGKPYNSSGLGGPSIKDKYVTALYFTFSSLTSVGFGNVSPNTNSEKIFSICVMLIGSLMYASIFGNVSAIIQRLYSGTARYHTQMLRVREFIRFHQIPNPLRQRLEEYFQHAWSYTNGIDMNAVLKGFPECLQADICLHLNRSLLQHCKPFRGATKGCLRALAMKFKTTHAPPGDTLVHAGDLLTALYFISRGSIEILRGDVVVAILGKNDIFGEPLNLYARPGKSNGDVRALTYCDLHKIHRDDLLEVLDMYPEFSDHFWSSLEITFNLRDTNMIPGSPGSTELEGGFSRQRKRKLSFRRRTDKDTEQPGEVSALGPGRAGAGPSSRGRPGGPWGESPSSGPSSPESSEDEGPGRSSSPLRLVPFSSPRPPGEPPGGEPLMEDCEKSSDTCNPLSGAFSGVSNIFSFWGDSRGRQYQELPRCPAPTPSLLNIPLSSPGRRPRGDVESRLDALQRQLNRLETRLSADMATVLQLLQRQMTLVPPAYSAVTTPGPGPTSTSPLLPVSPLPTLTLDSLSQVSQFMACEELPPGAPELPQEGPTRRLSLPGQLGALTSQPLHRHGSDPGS
Among all 310,000 compounds or so, about 14,000 (4.5%) showed an effect of 50% or more. Effects have a minus sign here. The full list was thinned out, with strong results kept by preference.
Report as a plain number; the unit % is understood.

[
  {
    "Compound": "N#Cc1ncccc1CCc1cccc(Cl)c1",
    "Units Label": "%",
    "Reported Value": -11.1
  },
  {
    "Compound": "COc1cc(C2C(C#N)=C(N)Oc3c2c(-c2ccccc2)nn3-c2ccccc2)cc(OC)c1OC (centres unmarked)",
    "Units Label": "%",
    "Reported Value": -65
  },
  {
    "Compound": "O=C(NC1CCCC1)C(c1cc2c(cc1[N+](=O)[O-])OCO2)N1CCCC1 (centres unmarked)",
    "Units Label": "%",
    "Reported Value": 20.6
  },
  {
    "Compound": "Cc1ccc(CCNC(=O)C2CCN(S(=O)(=O)c3ccc4c(c3)NC(=O)C(C)S4)CC2)cc1 (centres unmarked)",
    "Units Label": "%",
    "Reported Value": -2.94
  },
  {
    "Compound": "O=C(CN1C(=O)C(c2ccc(F)cc2)=NC12CCCC2)Nc1ccc(F)cc1",
    "Units Label": "%",
    "Reported Value": -5.39
  },
  {
    "Compound": "O=C1CCCCCC1C1(O)C(=O)Nc2ccccc21 (centres unmarked)",
    "Units Label": "%",
    "Reported Value": -1.78
  },
  {
    "Compound": "CC(N)C12CC3CC(CC(C3)C1)C2.Cl (centres unmarked)",
    "Units Label": "%",
    "Reported Value": 14.1
  },
  {
    "Compound": "O=C(NCCN1CCOCC1)c1cc2c(=O)n3ccccc3nc2n1Cc1ccccc1",
    "Units Label": "%",
    "Reported Value": -5.9
  },
  {
    "Compound": "CC1CCN(c2c(NCC3CCC(C(=O)N4CCCC(C)C4)CC3)c(=O)c2=O)CC1 (centres unmarked)",
    "Units Label": "%",
    "Reported Value": 2.75
  },
  {
    "Compound": "COc1ccccc1N(C)S(=O)(=O)c1ccc(C(=O)NCc2ccc3c(c2)OCO3)cc1",
    "Units Label": "%",
    "Reported Value": 4.2
  }
]

**Q:** Answer with reported hERG current change (%, negative = inhibition) at 10uM of O=C(COC(=O)CC1Sc2ccccc2NC1=O)NCc1ccccc1 (centres unmarked)
**A:** -21.4

**Q:** Answer with reported hERG current change (%, negative = inhibition) at 10uM of `Cc1cc(C(=O)NNC(=O)c2cccs2)c(C)o1`
**A:** 7.06

**Q:** Answer with reported hERG current change (%, negative = inhibition) at 10uM of CCOc1ccc(N2C(=O)CC(N(O)c3ccccc3)C2=O)cc1 (centres unmarked)
**A:** 2.96

**Q:** Answer with reported hERG current change (%, negative = inhibition) at 10uM of COc1ccccc1C1C(C#N)=C(N)Oc2c1c(-c1ccccc1)nn2-c1ccccc1 (centres unmarked)
**A:** 0.699

====

target: human ether-à-go-go-related gene (hERG) potassium channel (human); assay: primary screen, population patch clamp on CHO cells stably expressing hERG; higher = less effect of the substance
Out of some 310,000 compounds screened, about 14,000 (4.5%) showed an effect of 50% or more. The effect is printed as a negative number. Only a selection was taken, and strong results are over-represented in it overall.
Experimental Endpoint: hERG current change (%, negative = inhibition) at 10uM
Hey, just the number and the unit after it is fine.

[
  {
    "Molecule": "CCn1cc(C(=O)NCc2ccc3c(c2)OCO3)c(=O)c2cc(F)c(N3CCN(C)CC3)cc21",
    "Assayed Target": "human ether-à-go-go-related gene (hERG) potassium channel (human)",
    "Reported Value": "-37.2%"
  },
  {
    "Molecule": "CCc1ccc(-c2ccc(SCc3ccccn3)nn2)cc1",
    "Assayed Target": "human ether-à-go-go-related gene (hERG) potassium channel (human)",
    "Reported Value": "3.91%"
  },
  {
    "Molecule": "O=C1CC(N2CCC(n3c(=O)[nH]c4ccccc43)CC2)C(=O)N1c1ccc(F)cc1 (stereo not drawn)",
    "Assayed Target": "human ether-à-go-go-related gene (hERG) potassium channel (human)",
    "Reported Value": "-7.5%"
  }
]

**Q:** Answer with reported hERG current change (%, negative = inhibition) at 10uM of Cc1noc(/C=C/N(C)C)c1S(=O)(=O)N1CCCC(C(=O)NC2CCCCC2C)C1 (stereo not drawn)
**A:** -25.5%

**Q:** Answer with reported hERG current change (%, negative = inhibition) at 10uM of `CCOC(=O)CCC(=O)N1CCOCCOCCN(C(=O)CCC(=O)OCC)CCOCC1`
**A:** -7.63%

**Q:** Answer with reported hERG current change (%, negative = inhibition) at 10uM of `O=C1NCN(c2ccccc2)C12CCN(c1nnnn1-c1ccccc1)CC2`
**A:** -11.7%

**Q:** Answer with reported hERG current change (%, negative = inhibition) at 10uM of `O=c1[nH]c2ccccc2n1C1CCN(CCCC(c2ccc(F)cc2)c2ccc(F)cc2)CC1`
**A:** -77.6%

**Q:** Answer with reported hERG current change (%, negative = inhibition) at 10uM of `O=C1NCN(c2ccccc2)C12CCNCC2`
**A:** 3.05%

**Q:** Answer with reported hERG current change (%, negative = inhibition) at 10uM of `O=C(CSc1nnc(-c2c[nH]c3ccccc23)n1-c1ccc(F)cc1)NCc1ccco1`
**A:** -22%

**Q:** Answer with reported hERG current change (%, negative = inhibition) at 10uM of `CC1=CSC2=NC(C(F)(F)F)(C(F)(F)F)NC(=O)N12`
**A:** -1.5%

**Q:** Answer with reported hERG current change (%, negative = inhibition) at 10uM of `COc1cccc(CN(C)C(=O)CSCC(=O)Nc2cc(C)on2)c1OC`
**A:** 11.6%

**Q:** Answer with reported hERG current change (%, negative = inhibition) at 10uM of `O=C(Cn1c2c(c(=O)n3ncnc13)CCC2)N/N=C/c1cccs1`
**A:** 0.665%

**Q:** Answer with reported hERG current change (%, negative = inhibition) at 10uM of `Fc1ccc(N2CCN(c3cnc4ccccc4n3)CC2)cc1`
**A:** 6.24%

**Q:** Answer with reported hERG current change (%, negative = inhibition) at 10uM of c1csc(-c2nc(NCC3CCCO3)c3ccccc3n2)c1 (stereo not drawn)
**A:** -20.5%

**Q:** Answer with reported hERG current change (%, negative = inhibition) at 10uM of N#Cc1nc(-c2cccs2)oc1NCC1CCCO1 (stereo not drawn)
**A:** -10%

**Q:** Answer with reported hERG current change (%, negative = inhibition) at 10uM of `NC(N)=NC(=O)c1nc(Cl)c(N2CCCCCC2)nc1N`
**A:** -58.6%

**Q:** Answer with reported hERG current change (%, negative = inhibition) at 10uM of `Cc1ccc(C(=O)O)cc1S(=O)(=O)N1CCC(C(=O)O)CC1`
**A:** -4.77%

====

molecular target: human ether-à-go-go-related gene (hERG) potassium channel (human); assay: primary screen, population patch clamp on CHO cells stably expressing hERG; higher = less effect of the substance;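 also: peak tail current of the secondary pulse compared with the same well before compound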
Among all 310,000 compounds or so, about 14,000 (4.5%) showed an effect of 50% or more. Effects have a minus sign here. The entries come from a sample that favours strong results as a whole.
Experimental Endpoint: hERG current change (%, negative = inhibition) at 10uM
Hey, just the number and the unit after it is fine.

Some compounds with recorded hERG current change (%, negative = inhibition) at 10uM:
[
  {
    "Query Smiles": "Cc1ccc2nc(N(CCCN(C)C)C(=O)c3sc4ccccc4c3Cl)sc2c1.Cl",
    "Assayed Target": "human ether-à-go-go-related gene (hERG) potassium channel (human)",
    "Reported Value": "-29.9%"
  },
  {
    "Query Smiles": "Cc1cccc2sc(N(CCCN(C)C)C(=O)c3ccc(C(=O)c4ccccc4)cc3)nc12",
    "Assayed Target": "human ether-à-go-go-related gene (hERG) potassium channel (human)",
    "Reported Value": "-53.2%"
  },
  {
    "Query Smiles": "CN(C)CCCN(C(=O)c1ccc(N2C(=O)CCC2=O)cc1)c1nc2c(F)cccc2s1.Cl",
    "Assayed Target": "human ether-à-go-go-related gene (hERG) potassium channel (human)",
    "Reported Value": "-0.103%"
  },
  {
    "Query Smiles": "Cc1ccc(C(C)(C)C)c(OCCCCN2CCCC2)c1",
    "Assayed Target": "human ether-à-go-go-related gene (hERG) potassium channel (human)",
    "Reported Value": "-19.9%"
  },
  {
    "Query Smiles": "CC(C)NC(=O)CN1CCN(Cc2nc(-c3cccs3)no2)CC1",
    "Assayed Target": "human ether-à-go-go-related gene (hERG) potassium channel (human)",
    "Reported Value": "19.9%"
  },
  {
    "Query Smiles": "CC(=O)NCCNC(=O)c1cccc(NS(=O)(=O)c2ccc3c(c2)OCCO3)c1",
    "Assayed Target": "human ether-à-go-go-related gene (hERG) potassium channel (human)",
    "Reported Value": "-2.65%"
  }
]

**Q:** Name the recorded hERG current change (%, negative = inhibition) at 10uM of `CN(C)CCOC(=O)c1sc2ccccc2c1Cl.Cl` , assay system human ether-à-go-go-related gene (hERG) potassium channel (human).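 Also: peak tail current of the secondary pulse compared with the same well before compound.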
**A:** -29.4%

**Q:** Name the recorded hERG current change (%, negative = inhibition) at 10uM of `CN1CCN(C(=O)CSc2nc(-c3cccs3)ccc2C#N)CC1` , assay system human ether-à-go-go-related gene (hERG) potassium channel (human).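 Also: peak tail current of the secondary pulse compared with the same well before compound.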
**A:** -4.44%

**Q:** Name the recorded hERG current change (%, negative = inhibition) at 10uM of `Cc1cccc2sc(N(CCCN(C)C)C(=O)c3ccc(S(=O)(=O)N4CCc5ccccc5C4)cc3)nc12.Cl` , assay system human ether-à-go-go-related gene (hERG) potassium channel (human).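 Also: peak tail current of the secondary pulse compared with the same well before compound.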
**A:** 13.9%
